Molecular target: human TLR7 (Homo sapiens)
Sequence (Q9NYK1 27-1049): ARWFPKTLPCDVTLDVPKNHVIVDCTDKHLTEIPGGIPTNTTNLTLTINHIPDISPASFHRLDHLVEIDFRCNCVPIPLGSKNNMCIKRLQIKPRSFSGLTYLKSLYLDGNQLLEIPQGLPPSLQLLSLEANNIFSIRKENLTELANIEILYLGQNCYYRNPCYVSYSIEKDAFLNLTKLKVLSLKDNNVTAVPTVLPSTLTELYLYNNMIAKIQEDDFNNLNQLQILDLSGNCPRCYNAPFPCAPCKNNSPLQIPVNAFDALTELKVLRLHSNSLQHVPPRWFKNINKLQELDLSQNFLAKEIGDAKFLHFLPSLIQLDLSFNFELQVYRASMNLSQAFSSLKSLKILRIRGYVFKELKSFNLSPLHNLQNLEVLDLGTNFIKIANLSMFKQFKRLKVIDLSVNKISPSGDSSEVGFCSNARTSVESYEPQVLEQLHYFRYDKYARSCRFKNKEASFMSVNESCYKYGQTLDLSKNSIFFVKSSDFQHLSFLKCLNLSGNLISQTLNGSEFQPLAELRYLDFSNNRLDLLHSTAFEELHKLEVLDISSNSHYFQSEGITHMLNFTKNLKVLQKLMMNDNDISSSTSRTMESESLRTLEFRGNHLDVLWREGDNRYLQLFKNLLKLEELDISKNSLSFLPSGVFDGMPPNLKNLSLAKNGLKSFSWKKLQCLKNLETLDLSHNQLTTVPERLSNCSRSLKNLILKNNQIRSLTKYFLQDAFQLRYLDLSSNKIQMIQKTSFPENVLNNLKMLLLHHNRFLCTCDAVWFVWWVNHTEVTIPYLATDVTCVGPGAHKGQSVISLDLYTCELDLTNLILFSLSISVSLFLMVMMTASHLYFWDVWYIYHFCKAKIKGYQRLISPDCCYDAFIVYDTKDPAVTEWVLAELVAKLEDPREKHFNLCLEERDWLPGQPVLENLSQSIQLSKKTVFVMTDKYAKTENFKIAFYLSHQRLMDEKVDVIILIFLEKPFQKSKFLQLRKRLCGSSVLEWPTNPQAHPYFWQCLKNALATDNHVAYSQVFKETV
Experiment: HEK293-Blue-hTLR-7 cells assay (SEAP reporter, R848 stimulation)
Assay type: cell-based
Conditions: HEK293-Blue-hTLR7 cells, R848 ligand, 20 hrs incubation
Experimental: The following tests were carried out in order to determine the activity of the compounds of formula (I) in HEK293-Blue-hTLR-7/8/9 cells assay. HEK293-Blue-hTLR-7 Cells Assay: A stable HEK293-Blue-hTLR-7 cell line was purchased from InvivoGen (Cat. #: hkb-htlr7, San Diego, Calif., USA). These cells were originally designed for studying the stimulation of human TLR7 by monitoring the activation of NF-κB. […]
pIC50: −log10 of the molar value.
Classify by measured pIC50: 1 if it is equal to or exceeds 7, 0 if it is smaller.

molecule="N#Cc1ccc(N2C[C@H](CN3CCC(CN)CC3)[C@@H](C(F)(F)F)C2)c2nccnc12 [Example 74]" class_name=1
molecule="N#Cc1ccc(N2C[C@@H](CN3CCC4(CCNCC4)CC3)[C@H](C3CC3)C2)c2cccnc12 (relative stereo) [Example 28]" class_name=0
molecule="C[C@@H]1CN(c2ccc(C(F)(F)F)c3nccnc23)C[C@H]1CNC1CCCNCC1 (stereo partly shown) [Example 40]" class_name=0
molecule="CN(C)[C@@H]1CCN(C[C@H]2CN(c3ccc(C#N)c4nccnc34)C[C@@H]2C(F)(F)F)C1 [Example 83]" class_name=1
molecule="C[C@H]1CN(c2ccc(C#N)c3ncccc23)C[C@@H]1CN1CCC2(CCNCC2)CC1 [Example 23]" class_name=0

* * *

Molecular target: human TLR8 (Homo sapiens)
Sequence (Q9NR97 27-1041): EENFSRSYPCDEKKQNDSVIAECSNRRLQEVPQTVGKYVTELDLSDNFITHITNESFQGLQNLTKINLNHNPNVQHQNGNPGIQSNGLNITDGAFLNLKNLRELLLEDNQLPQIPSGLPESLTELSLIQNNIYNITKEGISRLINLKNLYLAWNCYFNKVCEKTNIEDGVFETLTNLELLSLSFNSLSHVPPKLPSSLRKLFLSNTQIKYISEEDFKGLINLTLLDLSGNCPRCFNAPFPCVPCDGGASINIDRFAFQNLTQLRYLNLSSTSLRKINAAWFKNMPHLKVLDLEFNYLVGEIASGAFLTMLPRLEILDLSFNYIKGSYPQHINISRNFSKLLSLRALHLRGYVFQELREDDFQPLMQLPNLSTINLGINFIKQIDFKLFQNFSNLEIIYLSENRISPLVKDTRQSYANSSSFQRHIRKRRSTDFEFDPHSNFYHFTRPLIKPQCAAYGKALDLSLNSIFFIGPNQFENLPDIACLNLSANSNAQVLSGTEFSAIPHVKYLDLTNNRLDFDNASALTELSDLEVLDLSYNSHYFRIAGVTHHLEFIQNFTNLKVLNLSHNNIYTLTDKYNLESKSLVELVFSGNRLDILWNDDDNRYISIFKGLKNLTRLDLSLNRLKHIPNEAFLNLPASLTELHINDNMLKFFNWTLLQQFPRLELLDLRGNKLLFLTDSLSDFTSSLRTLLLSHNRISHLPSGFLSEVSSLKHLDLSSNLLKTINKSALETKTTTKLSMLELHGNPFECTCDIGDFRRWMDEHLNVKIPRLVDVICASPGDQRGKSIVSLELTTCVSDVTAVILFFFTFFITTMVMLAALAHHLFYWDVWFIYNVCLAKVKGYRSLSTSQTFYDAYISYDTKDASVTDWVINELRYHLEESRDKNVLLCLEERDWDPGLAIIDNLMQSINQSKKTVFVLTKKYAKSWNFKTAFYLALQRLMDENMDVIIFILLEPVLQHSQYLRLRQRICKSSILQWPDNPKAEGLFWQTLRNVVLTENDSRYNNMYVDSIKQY
Experiment: HEK293-Blue-hTLR-8 cells assay (SEAP reporter, R848 stimulation)
Format: cell-based
Conditions: HEK293-Blue-hTLR8 cells, R848 ligand, 20 hrs incubation
Experimental: The following tests were carried out in order to determine the activity of the compounds of formula (I) in HEK293-Blue-hTLR-7/8/9 cells assay. HEK293-Blue-hTLR-8 Cells Assay: A stable HEK293-Blue-hTLR-8 cell line was purchased from InvivoGen (Cat. #: hkb-htlr8, San Diego, Calif., USA). These cells were originally designed for studying the stimulation of human TLR8 by monitoring the activation of NF-κB. […]
Grouping rule (IC50): interval 1 (below 40 nM), interval 2 (40 nM to below 60 nM), interval 3 (60 nM or more)

molecule="FC(F)(F)c1ccc(N2C[C@@H](CN3CCC4(CCNC4)C3)[C@H](C(F)(F)F)C2)c2nccnc12 (relative stereo)" target_or_system="human TLR8 (Homo sapiens)" class_name="interval 3"
molecule=N#Cc1ccc(N2C[C@H](CN3CCC4(CCNC4)CC3)[C@@H](C(F)(F)F)C2)c2cccnc12 target_or_system="human TLR8 (Homo sapiens)" class_name="interval 2"
molecule=CN(C)[C@@H]1CCN(C[C@H]2CN(c3ccc(C#N)c4nccnc34)C[C@@H]2C(F)(F)F)C1 target_or_system="human TLR8 (Homo sapiens)" class_name="interval 3"
molecule=N#Cc1ccc(N2C[C@H](CN3CCC4(CCCNC4)CC3)[C@@H](C(F)(F)F)C2)c2cccnc12 target_or_system="human TLR8 (Homo sapiens)" class_name="interval 2"
molecule=C[C@H]1CN(C[C@H]2CN(c3ccc(C#N)c4nccnc34)C[C@@H]2C(F)(F)F)CC[C@H]1N target_or_system="human TLR8 (Homo sapiens)" class_name="interval 1"
molecule=N#Cc1ccc(N2C[C@H](CN3CCC(N4CCCCC4)CC3)[C@@H](C(F)(F)F)C2)c2cccnc12 target_or_system="human TLR8 (Homo sapiens)" class_name="interval 2"
molecule="N#Cc1ccc(N2CC(CN3CCC4(CCCNC4)C3)C3(CC3)C2)c2nccnc12 (stereo not drawn)" target_or_system="human TLR8 (Homo sapiens)" class_name="interval 3"
molecule=CC1(N)CCN(C[C@H]2CN(c3ccc(C#N)c4nccnc34)C[C@@H]2C(F)(F)F)CC1 target_or_system="human TLR8 (Homo sapiens)" class_name="interval 1"
molecule="N#Cc1ccc(N2CC(CN3CC4(CC(N)C4)C3)C3(CC3)C2)c2nccnc12 (stereo not drawn)" target_or_system="human TLR8 (Homo sapiens)" class_name="interval 3"
molecule="CC1(CN)CCCN(C[C@H]2CN(c3ccc(C#N)c4nccnc34)C[C@@H]2C(F)(F)F)C1 (stereo partly drawn)" target_or_system="human TLR8 (Homo sapiens)" class_name="interval 1"
molecule="N#Cc1ccc(N2C[C@H](CN3CCCC(F)(CN)C3)[C@@H](C(F)(F)F)C2)c2nccnc12 (stereo partly drawn)" target_or_system="human TLR8 (Homo sapiens)" class_name="interval 1"
molecule=N#Cc1ccc(N2C[C@H](CNC3CCNCC3)[C@@H](C(F)(F)F)C2)c2nccnc12 target_or_system="human TLR8 (Homo sapiens)" class_name="interval 3"
molecule=N#Cc1ccc(N2C[C@H](CN3CC4(CCNCC4)C3)[C@@H](C(F)(F)F)C2)c2nccnc12 target_or_system="human TLR8 (Homo sapiens)" class_name="interval 1"
